From: patent US20240131004A1

Tested on: GPR55
Assay: Cell body GPR55 immunoreactive area in DRG neurons, paclitaxel reversal paradigm, high content imaging
Assay type: cell-based, rat
Details: Rattus norvegicus, DRG neuron, read-out: EC50 in reversing previously established increases in GPR55 area
measured.quantity: EC50
Quick note: unit goes after the number.

Lookup: Recall the recorded EC50 for C=C(C)[C@@H]1CCC(C)=C[C@H]1c1c(O)cc(CC2CN(C(C)=O)C2)cc1O with GPR55 and state it.
Found: 2.31 nM

###

Test system: GPR55
Assay: Neuritic GPR55 immunoreactive area in DRG cultures, 6 h co-treatment with LPIA
Type: cell-based, rat
Details: Rattus norvegicus, 6 h, read-out: IC50 in preventing increases in GPR55 area
measured.quantity: IC50
Please don't drop the unit; write it after the number.

Lookup: For the molecule shown here, C=C(C)[C@@H]1CCC(C)=C[C@H]1c1c(O)cc(CC2CN(C(C)=O)C2)cc1O [KLS-13019] , give the reported IC50.
Found: 0.107 nM
